Test system: blood
procedure-summary: GeneChip analysis of blood (Rat Expression Array 230A), 7-day administration
Assay type: in vivo
experimental-conditions: rat blood 24 hr after 7 consecutive days of oral administration, pooled, 4 rats per group; dose per compound in table
Catalogue of Number of expression variation probe sets, Decreased expression readings, one per entry.
value-type: Number of expression variation probe sets, Decreased expression

>  <compound>
CCN(CC)CCCC(C)Nc1ccnc2cc(Cl)ccc12 (stereo not drawn)

>  <test-value>
179

$$$$
>  <compound>
CCN(CC)CCCC(C)Nc1c2ccc(Cl)cc2nc2ccc(OC)cc12 (stereo not drawn)

>  <test-value>
103

$$$$
>  <compound>
CCCCc1oc2ccccc2c1C(=O)c1cc(I)c(OCCN(CC)CC)c(I)c1

>  <test-value>
457

$$$$
>  <compound>
CC/C(=C(\c1ccccc1)c1ccc(OCCN(C)C)cc1)c1ccccc1

>  <test-value>
368

$$$$
>  <compound>
CN(C)CCCN1c2ccccc2CCc2ccccc21

>  <test-value>
320

$$$$
>  <compound>
C1CCC(C(CC2CCCCN2)C2CCCCC2)CC1 (stereo not drawn)

>  <test-value>
83

$$$$

====

Catalogue of Number of expression variation probe sets, Increased expression readings, one per entry.
Tested on: blood
procedure-summary: GeneChip analysis of blood (Rat Expression Array 230A), 7-day administration
Format: in vivo
experimental-conditions: rat blood 24 hr after 7 consecutive days of oral administration, pooled, 4 rats per group; dose per compound in table
value-type: Number of expression variation probe sets, Increased expression

>  <compound>
CCCCc1oc2ccccc2c1C(=O)c1cc(I)c(OCCN(CC)CC)c(I)c1 [Amiodarone, amiodarone]

>  <test-value>
515

$$$$
>  <compound>
CCN(CC)CCCC(C)Nc1c2ccc(Cl)cc2nc2ccc(OC)cc12 (stereo not drawn) [Quinacrine, quinacrine]

>  <test-value>
258

$$$$
>  <compound>
CC/C(=C(\c1ccccc1)c1ccc(OCCN(C)C)cc1)c1ccccc1 [Tamoxifen, tamoxifen]

>  <test-value>
546

$$$$
>  <compound>
C1CCC(C(CC2CCCCN2)C2CCCCC2)CC1 (stereo not drawn) [Perhexiline, perhexiline]

>  <test-value>
49

$$$$
>  <compound>
CN(C)CCCN1c2ccccc2CCc2ccccc21 [Imipramine, imipramine]

>  <test-value>
123

$$$$
>  <compound>
CCN(CC)CCCC(C)Nc1ccnc2cc(Cl)ccc12 (stereo not drawn) [Chloroquine, chloroquine]

>  <test-value>
310

$$$$

====

Tested on: Crj:CD(SD)IGS rats
experimental-conditions: rat, in vivo
value-type: Histopathological findings (PLsis) Spleen

>  <compound>
CNCCC(Oc1ccc(C(F)(F)F)cc1)c1ccccc1 (stereo not drawn)

>  <test-value>
−

$$$$
>  <compound>
CCN(CC)CCCC(C)Nc1ccnc2cc(Cl)ccc12 (stereo not drawn)

>  <test-value>
+

$$$$
>  <compound>
C1CCC(C(CC2CCCCN2)C2CCCCC2)CC1 (stereo not drawn)

>  <test-value>
+

$$$$
>  <compound>
CCCCc1oc2ccccc2c1C(=O)c1cc(I)c(OCCN(CC)CC)c(I)c1

>  <test-value>
+

$$$$
>  <compound>
CC/C(=C(\c1ccccc1)c1ccc(OCCN(C)C)cc1)c1ccccc1

>  <test-value>
−

$$$$
>  <compound>
CCN(CC)CCCC(C)Nc1c2ccc(Cl)cc2nc2ccc(OC)cc12 (stereo not drawn)

>  <test-value>
−

$$$$

====

Tested on: Crj:CD(SD)IGS rats
experimental-conditions: rat, in vivo
value-type: Histopathological findings (PLsis) Lymph node

>  <compound>
CCCCc1oc2ccccc2c1C(=O)c1cc(I)c(OCCN(CC)CC)c(I)c1

>  <test-value>
++

$$$$
>  <compound>
CC/C(=C(\c1ccccc1)c1ccc(OCCN(C)C)cc1)c1ccccc1

>  <test-value>
++

$$$$
>  <compound>
CCN(CC)CCCC(C)Nc1c2ccc(Cl)cc2nc2ccc(OC)cc12 (stereo not drawn)

>  <test-value>
−

$$$$
>  <compound>
CN(C)CCCN1c2ccccc2CCc2ccccc21

>  <test-value>
−

$$$$
>  <compound>
C1CCC(C(CC2CCCCN2)C2CCCCC2)CC1 (stereo not drawn)

>  <test-value>
+

$$$$
>  <compound>
CCN(CC)CCCC(C)Nc1ccnc2cc(Cl)ccc12 (stereo not drawn)

>  <test-value>
−

$$$$

====

Tested on: blood
procedure-summary: GeneChip analysis of blood (Rat Expression Array 230A), 3-day administration
Assay type: in vivo
experimental-conditions: rat blood 24 hr after 3 consecutive days of oral administration, pooled, 3 rats per group; dose per compound in table
Lab note: compare Number of expression variation probe sets, Increased expression with 300, writing Y if less and N if equal or more.

>  <compound>
CCCCc1oc2ccccc2c1C(=O)c1cc(I)c(OCCN(CC)CC)c(I)c1 [Amiodarone, amiodarone]

>  <category>
N

$$$$
>  <compound>
C1CCC(C(CC2CCCCN2)C2CCCCC2)CC1 (stereo not drawn) [Perhexiline, perhexiline]

>  <category>
N

$$$$
>  <compound>
CNCCC(Oc1ccc(C(F)(F)F)cc1)c1ccccc1 (stereo not drawn) [Fluoxetine, fluoxetine]

>  <category>
N

$$$$
>  <compound>
CCN(CC)CCCC(C)Nc1c2ccc(Cl)cc2nc2ccc(OC)cc12 (stereo not drawn) [Quinacrine, quinacrine]

>  <category>
Y

$$$$
>  <compound>
CC/C(=C(\c1ccccc1)c1ccc(OCCN(C)C)cc1)c1ccccc1 [Tamoxifen, tamoxifen]

>  <category>
Y

$$$$
>  <compound>
CCN(CC)CCCC(C)Nc1ccnc2cc(Cl)ccc12 (stereo not drawn) [Chloroquine, chloroquine]

>  <category>
N

$$$$
